B1: VH:VL chains; a variant is named by its letters at X, in order (parent)
chain 1: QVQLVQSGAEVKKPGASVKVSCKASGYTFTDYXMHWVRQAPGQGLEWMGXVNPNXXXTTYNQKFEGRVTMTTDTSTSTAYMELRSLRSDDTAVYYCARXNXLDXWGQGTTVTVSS
chain 2: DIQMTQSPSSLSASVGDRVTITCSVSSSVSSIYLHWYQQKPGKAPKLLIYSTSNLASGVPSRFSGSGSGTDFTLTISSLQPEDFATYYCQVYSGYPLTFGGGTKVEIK

# Variants of: B1
# ASSAY_NOTES: yeast display scFab, FACS + sequencing
# SETTINGS: with MET
The other results are listed elsewhere or left out. The true hit rate is not given.
PROPERTY_NAME: antigen binding call

Here are 5 variants together with their reported answers.
- VARIANT_NOTATION: "VEGGGDGD"
  antigen binding call: "no binding"
- VARIANT_NOTATION: "VTATADWA"
  antigen binding call: "no binding"
- VARIANT_NOTATION: "DTTGSDWA"
  antigen binding call: "no binding"
- VARIANT_NOTATION: "YATGGYAV"
  antigen binding call: "no binding"
- VARIANT_NOTATION: "YARRAAVS"
  antigen binding call: "no binding"

Please state, for each entry, its recorded antigen binding call.
1. YRRRGDGV
2. VRGRGFLD
3. YRRRGFGV
4. DAAGAAGV
5. VRAGGSAD
6. VRRANFLD
7. YRRRGAGV
8. YARADDVF

OUTPUT:
["binds", "binds", "binds", "no binding", "binds", "no binding", "binds", "no binding"]

Sourced from the emibetuzumab library of Makowski et al. (2022)
